Study the reported Ki values for Peptidyl-prolyl cis-trans isomerase FKBP1A (Homo sapiens) given below; they originate from different publications.
hey, just use condition met if measured Ki is less than 0.9 µM, otherwise condition not met

Answered examples (3):
compound: COc1cc(OC)c(OC)cc1/C=C/C(=O)N1CCC[C@H]1C(=O)OCc1ccccc1
measured-on: Peptidyl-prolyl cis-trans isomerase FKBP1A (Homo sapiens)
cat: condition not met

compound: COc1ccc(/C=C/C(=O)C(=O)N2CCCC[C@H]2C(=O)OCc2ccccc2)cc1
measured-on: Peptidyl-prolyl cis-trans isomerase FKBP1A (Homo sapiens)
cat: condition not met

compound: CCOCc1cccc(COCC)c1-c1csc([C@H](CCN2CCOCC2)OC(=O)[C@@H]2CCCCN2C(=O)C(=O)C2CCOCC2)c1
measured-on: Peptidyl-prolyl cis-trans isomerase FKBP1A (Homo sapiens)
cat: condition not met

Ki under 0.9 µM? Item: `CCC/C=C(/c1cccnc1)c1cccc([C@@H](CCN2CCOCC2)OC(=O)[C@@H]2CCCCN2C(=O)C(=O)c2cc(OC)c(OC)c(OC)c2)c1`
condition met

Ki under 0.9 µM? Item: `CCOCc1cccc(COCC)c1-c1csc([C@H](CCN2CCOCC2)OC(=O)[C@@H]2CCCCN2C(=O)C(=O)C(C)(C)C)c1`
condition met

Is 0.9 µM strictly greater than the compound's reported Ki? compound: `COc1ccc(OC)c(/C=C/C(=O)N2CCC[C@H]2C(=O)OCc2ccccc2)c1`
condition not met

Hello, I'm reviewing records and need to know if Ki of `CCC/C(=C/COC)c1cncc([C@@H](CCN2CCOCC2)OC(=O)[C@@H]2CCCCN2C(=O)C(=O)[C@@H]2C[C@H](C(C)(C)OC)CC[C@H]2C)c1` is below 0.9 µM. Could you check?
condition not met

Dear colleague, could you confirm whether Ki of `COc1ccccc1-c1cncc([C@@H](CCCc2ccccc2)OC(=O)[C@@H]2CCCCN2C(=O)C(=O)c2cc(OC)c(OC)c(OC)c2)c1` falls below 0.9 µM? Thanks.
condition met

In plain terms, does `CN(C)c1ccc(/C=C/C(=O)N2CCCC[C@H]2C(=O)OCc2ccccc2)cc1` come in under 0.9 µM for Ki?
condition not met

For this compound, is Ki lower than 0.9 µM? `COc1ccc(COCc2coc(C(=O)C(=O)N3CCCC[C@H]3C(=O)OCCCCc3ccccc3)c2)cc1`
condition met

Problem: For the compound `O=C(C(=O)N1CCCC[C@H]1C(=O)OCc1ccccc1)c1cccc[n+]1[O-]` , is Ki under 0.9 µM?
condition not met

Please determine if `CCOCc1cccc(COCC)c1-c1ccc([C@@H](CCN2CCOCC2)OC(=O)[C@@H]2CCCCN2C(=O)C(=O)CC(C)C)s1` is below 0.9 µM in terms of Ki.
condition met

Regarding C=CCC/C=C(\c1ccc(C(CCN2CCOCC2)OC(=O)[C@@H]2CCCCN2C(=O)C(=O)C(C)(C)C(C)C)s1)C1CCOCC1 (stereo partly shown) , kindly confirm whether its Ki is beneath 0.9 µM.
condition met

Ki under 0.9 µM? Item: `COc1cc(C(=O)C(=O)N2CCCC[C@H]2C(=O)OCCC=Cc2ccccc2)cc(OC)c1OC`
condition met

Say whether its Ki is strictly beneath 0.9 µM. Entry: `COC(=O)C(=O)N(C)[C@H](C(=O)OCc1ccccc1)C(C)C`
condition not met

Problem: For the compound O=C(OCCCCc1ccccc1)C1CCCCN1S(=O)(=O)Cc1ccccc1 (stereo not shown) , is Ki under 0.9 µM?
condition met

Consider the compound `CC(C)(C)C(=O)C(=O)N1CCCC[C@H]1C(=O)OCCCCc1ccccc1` . Is its Ki strictly less than 0.9 µM?
condition met

Please state whether Ki is below 0.9 µM for `C=CCOC(=O)[C@@H]1CCCCN1C(=O)C(=O)c1ccccc1`
condition not met

In the record for `CCC(C)(C)C(=O)C(=O)N1CCCC[C@H]1C(=O)SC(CCc1ccccc1)CCc1ccccc1` , is Ki less than 0.9 µM?
condition met

Quick check: Ki of `CC(C)(C)C(=O)C(=O)N1CCC[C@H]1C(=O)OCCCc1ccccc1` under 0.9 µM?
condition met

* * *

Several reports have described pKi for Peptidyl-prolyl cis-trans isomerase FKBP1A (Homo sapiens); a selection of those results is presented here.
pKi: −log10 of the molar value.

Example entries begin here.
molecule: O=C(OCc1ccccc1)[C@@H]1CCCCN1C(=O)/C=C/c1c[nH]c2ccccc12
pKi: < 4.22
--
molecule: COc1ccc(CCCSC(=O)C2CCCN2S(=O)(=O)c2ccc(C)cc2)cc1 (stereo not drawn)
pKi: 6.30 to 6.70

Kindly consider the entry below.
Summary: `CCOc1ccc(OCC)c(-c2cccc([C@H](CCCc3ccccc3)OC(=O)[C@@H]3CCCCN3C(=O)C(=O)c3cc(OC)c(OC)c(OC)c3)c2)c1` , Peptidyl-prolyl cis-trans isomerase FKBP1A (Homo sapiens), pKi = < 5.00

* * *

Please find below Ki data on Peptidyl-prolyl cis-trans isomerase FKBP1A (Homo sapiens) compiled from the literature.
Give the number; µM is assumed, so skip it.

Sure, the documented Ki for `O=C(C(=O)N1CCCC[C@H]1C(=O)Oc1cccc2ccccc12)c1ccccc1` is 0.9

Lab note: `CCO[C@@H]1CC[C@@H](C)[C@H](C(=O)C(=O)N2CCCC[C@H]2C(=O)O[C@H](CCN2CCOCC2)c2cccc(-n3c(C)ccc3C)c2)C1` gave Ki of 0.019

get_value(item= `CCCCc1ccc(C)n1-c1cccc([C@@H](CCN2CCOCC2)OC(=O)[C@@H]2CCCCN2C(=O)C(=O)[C@@H]2C[C@H](C(C)C)CC[C@H]2C)c1` , readout=Ki) returns 3

The recorded Ki for entry `CCC/C=C(\c1cncc([C@@H](CCN2CCOCC2)OC(=O)[C@@H]2CCCCN2C(=O)C(=O)[C@@H]2CCCC[C@H]2C)c1)C(C)C` equals 0.041

get_value(item= `O=C(C(=O)N1CCCC[C@H]1C(=O)OCc1ccccc1)c1ccc2ccccc2c1` , readout=Ki) returns 1.5

Please fill in: Ki reported for CO[C@H]1C[C@@H]2CC[C@@H](C)[C@](O)(CC(=O)N3CCCC[C@H]3C(=O)OC([C@H](C)C[C@@H]3CC[C@@H](O)[C@H](O)C3)C/C=C(\C)[C@@H](O)CC(=O)[C@H](C)C[C@H](C)/C=C/C=C/C=C/1C)O2 (some centres unmarked) = 0.18
